- tgt: mouse FAP (mFAP) (Mus musculus)
- Sequence (P97321 26-761 limits assumed): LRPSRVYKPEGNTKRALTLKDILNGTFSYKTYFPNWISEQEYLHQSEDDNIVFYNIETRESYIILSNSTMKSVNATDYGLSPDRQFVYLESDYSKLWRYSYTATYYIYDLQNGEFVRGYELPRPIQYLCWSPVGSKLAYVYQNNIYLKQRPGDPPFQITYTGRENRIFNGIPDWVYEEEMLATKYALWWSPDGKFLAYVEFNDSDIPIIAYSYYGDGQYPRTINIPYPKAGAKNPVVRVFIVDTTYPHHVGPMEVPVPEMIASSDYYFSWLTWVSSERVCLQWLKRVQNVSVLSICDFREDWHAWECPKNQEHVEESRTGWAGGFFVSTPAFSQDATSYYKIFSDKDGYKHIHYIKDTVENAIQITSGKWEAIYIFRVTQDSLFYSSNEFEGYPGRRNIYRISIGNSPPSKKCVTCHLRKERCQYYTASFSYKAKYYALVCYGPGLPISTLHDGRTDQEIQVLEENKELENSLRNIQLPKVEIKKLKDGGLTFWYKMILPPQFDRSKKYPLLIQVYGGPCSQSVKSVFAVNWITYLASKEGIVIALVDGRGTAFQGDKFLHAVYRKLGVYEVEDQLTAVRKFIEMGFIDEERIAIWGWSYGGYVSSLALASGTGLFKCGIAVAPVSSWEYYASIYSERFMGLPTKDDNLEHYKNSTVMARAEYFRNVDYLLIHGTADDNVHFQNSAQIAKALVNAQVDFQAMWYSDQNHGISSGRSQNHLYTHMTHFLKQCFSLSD
pIC50: −log10 of the molar value.
recorded-endpoint: pIC50

INSERT INTO measurements (compound, tgt, quantitative_result) VALUES
  ('COc1cc2cc(c1Cl)N(C)C(=O)CC(OC(=O)C(C)N(C)C(=O)CCSSCCC(=O)NCCCOc1cccc3c(C(=O)NCC(=O)N4CC(F)(F)CC4C#N)ccnc13)C1(C)OC1C(C)C1CC(O)(NC(=O)O1)C(OC)C=CC=C(C)C2 (stereo not shown)', 'mouse FAP (mFAP) (Mus musculus)', 8.70),
  ('N#C[C@@H]1CC(F)(F)CN1C(=O)CNC(=O)c1ccnc2c(OCCCNC(=O)CC(O)CNC(=O)CC(O)CNC(=S)Nc3ccc4c(c3)C(=O)OC43c4ccc(O)cc4Oc4cc(O)ccc43)cccc12 (stereo partly shown)', 'mouse FAP (mFAP) (Mus musculus)', 8.70),
  ('N#C[C@@H]1CC(F)(F)CN1C(=O)CNC(=O)c1ccnc2c(OCCCNC(=O)CCSc3nnc(SCCC(=O)NCCCOc4cccc5c(C(=O)NCC(=O)N6CC(F)(F)C[C@H]6C#N)ccnc45)c4c3CCCC(OC(=O)NCCCNC(=O)CCC(C(=O)O)N3CCN(CC(=O)O)CCN(CC(=O)O)CCN(CC(=O)O)CC3)CC4)cccc12 (stereo partly shown)', 'mouse FAP (mFAP) (Mus musculus)', 8.95),
  ('N#C[C@@H]1CC(F)(F)CN1C(=O)CNC(=O)c1ccnc2c(OCCCNC(=O)CN3CCN(C(=O)CN4CCN(CC(=O)O)CCN(CC(=O)O)CCN(CC(=O)O)CC4)CC3)cccc12', 'mouse FAP (mFAP) (Mus musculus)', 8.74);

---

Some molecules, each annotated with its measured IC50.
- tgt: UniProt Q12884
- Sequence (Q12884 26-760 limits assumed): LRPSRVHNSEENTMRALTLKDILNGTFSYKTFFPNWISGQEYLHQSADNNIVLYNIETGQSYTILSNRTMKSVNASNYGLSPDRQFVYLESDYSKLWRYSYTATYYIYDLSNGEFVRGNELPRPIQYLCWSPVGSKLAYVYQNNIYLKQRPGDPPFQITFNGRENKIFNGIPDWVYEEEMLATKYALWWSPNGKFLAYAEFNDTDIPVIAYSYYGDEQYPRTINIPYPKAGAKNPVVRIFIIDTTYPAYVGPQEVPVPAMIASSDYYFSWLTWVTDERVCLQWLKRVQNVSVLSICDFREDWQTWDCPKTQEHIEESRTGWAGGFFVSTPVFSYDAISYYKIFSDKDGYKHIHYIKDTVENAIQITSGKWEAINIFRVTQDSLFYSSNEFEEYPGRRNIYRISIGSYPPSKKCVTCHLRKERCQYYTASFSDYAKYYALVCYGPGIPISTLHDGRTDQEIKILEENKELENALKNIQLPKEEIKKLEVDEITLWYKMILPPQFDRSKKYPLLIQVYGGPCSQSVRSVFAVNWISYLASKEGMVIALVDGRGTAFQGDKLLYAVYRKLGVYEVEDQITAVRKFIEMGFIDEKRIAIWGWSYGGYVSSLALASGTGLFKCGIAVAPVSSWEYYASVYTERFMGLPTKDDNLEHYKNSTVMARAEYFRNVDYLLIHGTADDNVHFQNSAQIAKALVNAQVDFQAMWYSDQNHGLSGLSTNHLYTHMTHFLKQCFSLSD
recorded-endpoint: IC50

INSERT INTO measurements (molecule, tgt, recorded_endpoint, result) VALUES
  ('COc1cc2cc(c1Cl)N(C)C(=O)CC(OC(=O)C(C)N(C)C(=O)CCSSCCC(=O)NCCCOc1cccc3c(C(=O)NCC(=O)N4CC(F)(F)CC4C#N)ccnc13)C1(C)OC1C(C)C1CC(O)(NC(=O)O1)C(OC)C=CC=C(C)C2 (stereo not shown)', 'UniProt Q12884', 'IC50', '2.6 nM'),
  ('N#C[C@@H]1CC(F)(F)CN1C(=O)CNC(=O)c1ccnc2c(OCCCNC(=O)C3CCC(CNC(=O)CN4CCN(CC(=O)O)CCN(CC(=O)O)CCN(CC(=O)O)CC4)CC3)cccc12 (stereo partly shown)', 'UniProt Q12884', 'IC50', '2.9 nM'),
  ('N#C[C@@H]1CC(F)(F)CN1C(=O)CNC(=O)c1ccnc2c(OCCCNC(=O)CCSCC(=O)N3CN(C(=O)CSCCC(=O)NCCCOc4cccc5c(C(=O)NCC(=O)N6CC(F)(F)C[C@H]6C#N)ccnc45)CN(C(=O)Cn4nnc5c4CC[C@H]4[C@@H](CC5)[C@H]4COC(=O)NCCNC(=O)CCC(C(=O)O)N4CCN(CC(=O)O)CCN(CC(=O)O)CCN(CC(=O)O)CC4)C3)cccc12 (stereo partly shown)', 'UniProt Q12884', 'IC50', '1.8 nM'),
  ('N#C[C@@H]1CC(F)(F)CN1C(=O)CNC(=O)c1ccnc2c(OCCCNC(=O)CN3CCC(NC(=O)CN4CCN(CC(=O)O)CCN(CC(=O)O)CCN(CC(=O)O)CC4)CC3)cccc12', 'UniProt Q12884', 'IC50', '2.4 nM');
